Tested on: PfAP2-G AP2 domain (GST-tagged)
Test: gcPBM binding intensity (ln(normalized median fluorescence intensity)); higher = stronger DNA binding
The full ranking holds about 25,000 sequences; the median of “ln(normalized median fluorescence intensity)” is about 10, and the highest 2% start at about 12. Many of the other results were omitted from the sample, so the highest values are more common in it than they were.
ASSAY ENDPOINT: gcPBM binding intensity (ln)
Lab note: jot down the number only; don't add units.

Example cases with answers are listed next.
TTAAAAATATTATGTACACACATTTTAGATATTTGT [CACACA_site1846]    11.6
ATTTAAAAAATATATTGTACATATTTTATTATGTTT [XGTACX_site2984]    11
CCCTCAACGAATTTGAGTACACATTTTAAATGATAT [XGTACX_site7763]    11.7

[in] Quick one: gcPBM binding intensity (ln) for TTTTTTTTTTTTTTTTTTATATTTCATAATTTCATT [XGTACX_negctrl_site579] ?
[out] 9.33

[in] Quick one: gcPBM binding intensity (ln) for TATTTATTTATGTACGCACACAGTTGATATTAATTC [CACACA_site2754] ?
[out] 11.6

[in] Quick one: gcPBM binding intensity (ln) for TTTTAATGATATATGAGTACACATTGTTTTTTATAA [XGTACX_site1072] ?
[out] 11.6

[in] Quick one: gcPBM binding intensity (ln) for AAATATTATGTACGCACACACATTTTTGATATATAA [CACACA_site7755] ?
[out] 11.5

[in] Quick one: gcPBM binding intensity (ln) for ATATTTATTTATTTATGTACGCACACAGTTGATATT [XGTACX_site5808] ?
[out] 11.7

[in] Quick one: gcPBM binding intensity (ln) for TATATATATATATATACACACATTTTTAATGATAAA [CACACA_site2695] ?
[out] 10.1

* * *

System: PfAP2-G AP2 domain (GST-tagged)
Test: gcPBM binding intensity (ln(normalized median fluorescence intensity)); higher = stronger DNA binding
The full ranking holds about 25,000 sequences; the median of “ln(normalized median fluorescence intensity)” is about 10, and the highest 2% start at about 12. The sample as a whole holds a higher share of the highest values than the screen did.
ASSAY ENDPOINT: gcPBM binding intensity (ln)
Lab note: jot down the number only; don't add units.

TATAAATTTTTATTTACATGCAGTTATTATTTCCAT [TGCATGCA_site41]    10
TTTTGATCATCCAAAATATCTTCATCTGAACTACTA [CACACA_negctrl_site939]    9.84
TATATATTATTTAAAACACACAAAAAAAAAAATTAT [CACACA_site89]    9.89

[in] Quick one: gcPBM binding intensity (ln) for AATGATTGATTTTATTGTACGTACTCGGAATATGGT [XGTACX_site4976] ?
[out] 11.8

[in] Quick one: gcPBM binding intensity (ln) for AGTAAATATATTATATGTACGTATCATAAAATATAT [XGTACX_site1567] ?
[out] 11.6

[in] Quick one: gcPBM binding intensity (ln) for TTTTTTTGCGCGGGAAGAATAAAATTTATAGAATAT [TGCATGCA_negctrl_site306] ?
[out] 10.4

[in] Quick one: gcPBM binding intensity (ln) for TTTTTTTTTTCTTTTTTTTATTATATTAACGGAATT [GTGCAC_negctrl_site104] ?
[out] 9.82

[in] Quick one: gcPBM binding intensity (ln) for TTTATTTTGTAGTGTACACATATATATATATATATA [CACACA_site5843] ?
[out] 11.7

[in] Quick one: gcPBM binding intensity (ln) for ATTAAAAAAAAAAAAAAAAAACAAAAAAAAAAAAAA [CACACA_negctrl_site1187] ?
[out] 9.62

[in] Quick one: gcPBM binding intensity (ln) for TTTTTTTTTATAAGGTGTACGTAAAATGTGTAGGTC [XGTACX_site3585] ?
[out] 11.6

[in] Quick one: gcPBM binding intensity (ln) for ATGTGTATATATTATTGTACATATATATATATATAT [XGTACX_site4627] ?
[out] 11.2

[in] Quick one: gcPBM binding intensity (ln) for AGATAAAATAAATACACACACATAAATACGTACAAA [CACACA_site4739] ?
[out] 11.7

[in] Quick one: gcPBM binding intensity (ln) for AAAAAAAAAAAAAAAGGTACACAAATACGTCCTGCA [XGTACX_site3354] ?
[out] 11.5

[in] Quick one: gcPBM binding intensity (ln) for AAAAAAAAAAAAATACGTACACAAAAAATTGCAAAG [XGTACX_site5663] ?
[out] 11.6

[in] Quick one: gcPBM binding intensity (ln) for CATACATATACTTTGTGTACATATATATATTATATA [XGTACX_site97] ?
[out] 11.4

[in] Quick one: gcPBM binding intensity (ln) for TTTTGTGGAGGATGGTGTACGGTATTGTATTATTAC [XGTACX_site1942] ?
[out] 11.1

[in] Quick one: gcPBM binding intensity (ln) for TAAAAAAAAAAATGAACATGCAACAATTGTGATGAA [TGCATGCA_site332] ?
[out] 9.74

[in] Quick one: gcPBM binding intensity (ln) for ATATATACGTATGAATGTATATTTGTTTGATTTTTT [CACACA_negctrl_site835] ?
[out] 9.88

[in] Quick one: gcPBM binding intensity (ln) for TTTTTATTTGGTTGTGTACACATATATATATATATA [CACACA_site5844] ?
[out] 11.6
